Each entry below lists one item and its recorded viability, T/C value.
# System: MDA-MB-231 multicell spheroids, viability (%T/C)
# procedure details: Anticancer human tumor MDA-MB-231 cell line growth inhibition [IpAb];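 further: viability read after seven days of drug exposure; 100% = DMSO vehicle control viability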
# stated conditions: second compound 0.1 µM; first compound 0.03 µM; stronger effect = lower value
# Protocol: Combinatorial screen of targeted agents with ipatasertib and abemaciclib in multi-cell type tumor spheroids […] Compounds. […] If the clinical Cmax for an agent had not been determined, the highest concentration tested was 10 microM. NCI60 Cell Culture. […] The optimal seeding densities for each of the cell lines at each time point assessed were determined prior to performing the concentration response studies. […]
readout kind: viability, T/C (%)

>>> result_value("CC(=O)c1c(C)c2cnc(Nc3ccc(N4CCNCC4)cn3)nc2n(C2CCCC2)c1=O + CC(C)NCC(C(=O)N1CCN(c2ncnc3c2C(C)CC3O)CC1)c1ccc(Cl)cc1")
53
>>> result_value("Cn1cnc2c(F)c(Nc3ccc(Br)cc3Cl)c(C(=O)NOCCO)cc21 + CC(C)NCC(C(=O)N1CCN(c2ncnc3c2C(C)CC3O)CC1)c1ccc(Cl)cc1")
36.2
>>> result_value("Cn1cnc2c(F)c(Nc3ccc(Br)cc3Cl)c(C(=O)NOCCO)cc21 + CCN1CCN(Cc2ccc(Nc3ncc(F)c(-c4cc(F)c5nc(C)n(C(C)C)c5c4)n3)nc2)CC1")
30.1
>>> result_value("CC(=O)c1c(C)c2cnc(Nc3ccc(N4CCNCC4)cn3)nc2n(C2CCCC2)c1=O + CCN1CCN(Cc2ccc(Nc3ncc(F)c(-c4cc(F)c5nc(C)n(C(C)C)c5c4)n3)nc2)CC1")
47.1
>>> result_value("CC(C)(C)c1cnc(CSc2cnc(NC(=O)C3CCNCC3)s2)o1 + CCN1CCN(Cc2ccc(Nc3ncc(F)c(-c4cc(F)c5nc(C)n(C(C)C)c5c4)n3)nc2)CC1")
63.1
>>> result_value("CC(C)(C)c1cnc(CSc2cnc(NC(=O)C3CCNCC3)s2)o1 + CC(C)NCC(C(=O)N1CCN(c2ncnc3c2C(C)CC3O)CC1)c1ccc(Cl)cc1")
115
